TARGET DESC: human CD8 on human T cells (human, UniProt P01732 22-235)
Sequence (P01732 22-235): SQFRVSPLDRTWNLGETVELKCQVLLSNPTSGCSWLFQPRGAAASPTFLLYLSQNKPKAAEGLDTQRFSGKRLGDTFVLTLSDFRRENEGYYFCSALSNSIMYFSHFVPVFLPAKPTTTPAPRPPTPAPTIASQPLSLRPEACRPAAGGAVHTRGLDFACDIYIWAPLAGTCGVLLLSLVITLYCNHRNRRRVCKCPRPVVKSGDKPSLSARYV
TEST METHOD NOTES: cell-based or functional assay
EC50 of pSTAT4 signaling in human CD8+ T cells reference

BINDER	REPORTED MEASUREMENT
02A01-IgG-IL12 (HC) (other) VH: EVQLQQSGPELVKPGASLKISCKASGYTFTDFTMHWVKQSHGKSLEWIGLVNPNNGGNIYNQNFKGKATLTVDTSSSTAYMELRSLTSEDSSVYYCGRVPLYTSHGMDYWGQGTSVTVSS VL: DIVLTQSPAFLAVSLGQRATISCRASESVDSYDINSMHWYQQKPGQPPKLLIYRASHLQSGIPARFSGSGSRTDFTLTINFVEADDVATYYCQQSNEDPLTFGAGTKLELK	0.00303 nM

Could you now look at the following binder, please?
Using known records, supply EC50 of pSTAT4 signaling in human CD8+ T cells for 02A01-IgG-IL12 (LC) (other, 02A01 IgG with human IL-12p70 linked to the C-terminus of each light chain; human IgG1 Fc with L234A, L235A, P329G, N297A; also called 02A01 IgG IL12p70 (LC)) VH: EVQLQQSGPELVKPGASLKISCKASGYTFTDFTMHWVKQSHGKSLEWIGLVNPNNGGNIYNQNFKGKATLTVDTSSSTAYMELRSLTSEDSSVYYCGRVPLYTSHGMDYWGQGTSVTVSS VL: DIVLTQSPAFLAVSLGQRATISCRASESVDSYDINSMHWYQQKPGQPPKLLIYRASHLQSGIPARFSGSGSRTDFTLTINFVEADDVATYYCQQSNEDPLTFGAGTKLELK
0.00272 nM

Taken from patent US20260055186A1.
